Kindly supply the reported pEC50 values for the records listed here.
Target: Metabotropic glutamate receptor 2 (Rattus norvegicus, UniProt P31421)
Sequence (P31421 whole entry): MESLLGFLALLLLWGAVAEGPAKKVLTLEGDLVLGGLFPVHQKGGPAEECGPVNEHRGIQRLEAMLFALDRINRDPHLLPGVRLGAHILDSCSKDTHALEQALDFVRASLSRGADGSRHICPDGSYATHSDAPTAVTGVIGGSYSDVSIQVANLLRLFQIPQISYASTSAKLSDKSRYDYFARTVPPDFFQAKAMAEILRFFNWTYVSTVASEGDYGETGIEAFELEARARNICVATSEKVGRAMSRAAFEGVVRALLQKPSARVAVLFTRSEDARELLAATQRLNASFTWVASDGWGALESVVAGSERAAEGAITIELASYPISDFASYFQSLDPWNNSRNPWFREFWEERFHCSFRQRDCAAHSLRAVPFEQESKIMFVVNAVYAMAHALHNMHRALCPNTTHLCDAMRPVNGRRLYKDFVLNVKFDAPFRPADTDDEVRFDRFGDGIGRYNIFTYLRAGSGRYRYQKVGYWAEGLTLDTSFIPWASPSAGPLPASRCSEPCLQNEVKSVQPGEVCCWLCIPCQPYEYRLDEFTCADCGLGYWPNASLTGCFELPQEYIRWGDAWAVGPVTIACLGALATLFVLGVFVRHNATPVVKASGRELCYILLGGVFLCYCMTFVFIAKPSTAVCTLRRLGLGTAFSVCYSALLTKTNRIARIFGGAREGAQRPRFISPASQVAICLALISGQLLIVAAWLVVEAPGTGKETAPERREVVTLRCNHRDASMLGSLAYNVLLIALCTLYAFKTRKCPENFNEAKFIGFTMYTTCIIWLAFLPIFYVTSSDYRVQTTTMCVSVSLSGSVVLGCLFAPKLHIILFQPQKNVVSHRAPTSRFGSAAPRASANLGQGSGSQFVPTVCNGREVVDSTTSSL
Test: Agonist activity at rat mGlu2 transfected in HEK293 cells co-transfected with chimeric Gqi9 incubated for 30 mins by IP-one HTRF assay
Type: functional, cell-based
Details: read-out: EC50
Answers are plain numbers, as −log10 of the molar value.

>>> result_value("Cl.N[C@H](C(=O)O)[C@H]1[C@H](CC(=O)O)[C@@H]1C(=O)O")
9.00

Now consider the entry below.
Returns the measured pEC50 for the input compound. Input: N[C@@]1(C(=O)O)CO[C@H]2[C@H](C(=O)O)[C@H]21 [LY-379268] 9.00

---

Target: Metabotropic glutamate receptor 6 (Rattus norvegicus, UniProt P35349)
Sequence (P35349 whole entry): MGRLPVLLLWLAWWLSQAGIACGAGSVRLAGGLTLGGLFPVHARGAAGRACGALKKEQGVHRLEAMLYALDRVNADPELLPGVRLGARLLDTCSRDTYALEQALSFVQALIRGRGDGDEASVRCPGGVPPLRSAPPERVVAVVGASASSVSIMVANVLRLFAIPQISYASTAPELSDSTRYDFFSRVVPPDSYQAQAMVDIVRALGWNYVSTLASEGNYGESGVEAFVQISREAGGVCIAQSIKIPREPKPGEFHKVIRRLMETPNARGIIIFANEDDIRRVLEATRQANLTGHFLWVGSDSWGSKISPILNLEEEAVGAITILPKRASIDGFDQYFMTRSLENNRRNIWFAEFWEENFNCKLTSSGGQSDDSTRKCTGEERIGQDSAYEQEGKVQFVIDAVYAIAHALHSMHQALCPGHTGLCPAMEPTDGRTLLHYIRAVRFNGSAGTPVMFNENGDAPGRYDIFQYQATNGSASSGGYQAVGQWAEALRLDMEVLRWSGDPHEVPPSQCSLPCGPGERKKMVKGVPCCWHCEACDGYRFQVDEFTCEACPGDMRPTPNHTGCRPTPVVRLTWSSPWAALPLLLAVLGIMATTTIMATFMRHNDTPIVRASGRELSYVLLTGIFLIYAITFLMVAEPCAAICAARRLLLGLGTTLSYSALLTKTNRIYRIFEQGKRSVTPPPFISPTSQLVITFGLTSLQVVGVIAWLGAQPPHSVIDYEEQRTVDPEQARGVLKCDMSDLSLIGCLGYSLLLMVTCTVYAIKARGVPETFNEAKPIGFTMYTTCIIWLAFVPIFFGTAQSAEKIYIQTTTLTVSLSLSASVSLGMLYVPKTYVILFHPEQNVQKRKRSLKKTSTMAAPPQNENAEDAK
Assay: Agonist activity at rat mGlu6 transfected in HEK293 cells co-transfected with chimeric Gqi9 incubated for 30 mins by IP-one HTRF assay
Assay type: functional, cell-based
Conditions: read-out: EC50
Kindly supply the reported pEC50 values for the records listed here.
One number for each entry, as −log10 of the molar value.

>>> result_value("C[C@@]1(C(=O)O)C[C@H]1[C@H](N)C(=O)O")
5.60

Now consider the entry below.
Returns the measured pEC50 for the input molecule. Input: "Cl.N[C@H](C(=O)O)[C@H]1[C@H](CC(=O)O)[C@@H]1C(=O)O" 6.55

---

Assay: Half life in C57BL/6 mouse plasma at 10 mg/kg, iv by LC-MS/MS analysis
Format: ADME, organism-based
measurement-type: half-life (min)
One number for each entry, in min.

Returns the measured half-life for the input molecule. Input: "Cl.N[C@H](C(=O)O)[C@H]1[C@H](CC(=O)O)[C@@H]1C(=O)O" 30

---

Target: Metabotropic glutamate receptor 8 (Rattus norvegicus) (UniProt P70579)
Sequence (P70579 whole entry): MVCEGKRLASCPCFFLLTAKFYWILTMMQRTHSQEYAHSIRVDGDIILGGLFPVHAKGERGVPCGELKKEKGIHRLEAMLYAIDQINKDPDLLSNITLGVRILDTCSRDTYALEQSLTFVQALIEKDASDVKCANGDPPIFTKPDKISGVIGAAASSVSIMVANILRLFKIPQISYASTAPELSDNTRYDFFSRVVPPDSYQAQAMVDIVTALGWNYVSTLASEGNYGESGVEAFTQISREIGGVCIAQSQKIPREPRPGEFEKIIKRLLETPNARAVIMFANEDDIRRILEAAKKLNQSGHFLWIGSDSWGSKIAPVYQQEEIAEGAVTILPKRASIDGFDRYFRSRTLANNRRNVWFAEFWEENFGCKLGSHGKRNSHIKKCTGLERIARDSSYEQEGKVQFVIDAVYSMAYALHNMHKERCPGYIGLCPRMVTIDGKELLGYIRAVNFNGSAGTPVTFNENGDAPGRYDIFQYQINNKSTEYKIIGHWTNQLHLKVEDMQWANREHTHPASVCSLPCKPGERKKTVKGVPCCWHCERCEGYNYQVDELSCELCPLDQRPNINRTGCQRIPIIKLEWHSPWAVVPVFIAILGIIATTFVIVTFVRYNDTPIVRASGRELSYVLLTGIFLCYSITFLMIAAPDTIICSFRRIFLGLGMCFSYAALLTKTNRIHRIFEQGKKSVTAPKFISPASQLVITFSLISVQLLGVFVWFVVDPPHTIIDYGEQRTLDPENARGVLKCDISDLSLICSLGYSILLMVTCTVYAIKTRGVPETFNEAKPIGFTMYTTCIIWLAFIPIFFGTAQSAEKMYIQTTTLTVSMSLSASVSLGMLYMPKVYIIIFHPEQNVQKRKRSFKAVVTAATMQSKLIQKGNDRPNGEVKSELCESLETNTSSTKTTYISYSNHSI
Assay: Antagonist activity at rat mGlu8 transfected in HEK293 cells co-transfected with chimeric Gqi9 incubated for 30 mins by IP-one HTRF assay
Assay type: functional, cell-based
Active and inactive are the calls of the source. No cut-off for these calls is given here.
measurement-type: Activity

>>> result_value("Cl.N[C@H](C(=O)O)[C@H]1[C@H](CC(=O)O)[C@@H]1C(=O)O")
"inactive"
>>> result_value("N[C@@]1(C(=O)O)CO[C@H]2[C@H](C(=O)O)[C@H]21 [LY-379268]")
"inactive"
>>> result_value("N[C@@H](CCP(=O)(O)O)C(=O)O")
"inactive"
>>> result_value("N[C@@H](Cn1oc(=O)[nH]c1=O)C(=O)O [QUISQUALATE]")
"inactive"

Returns the measured Activity for the input compound. Input: "C[C@@]1(C(=O)O)C[C@H]1[C@H](N)C(=O)O" inactive

---

Target: UniProtKB P31421
Test: Agonist activity at SNAP tagged rat mGlu2 transfected HEK293 cells preincubated with antagonist LY-341495 followed by compound addition by TR-FRET assay
Type: functional, cell-based
measurement-type: pEC50
Answers are plain numbers, as −log10 of the molar value.

Returns the measured pEC50 for the input compound. Input: "Cl.N[C@H](C(=O)O)[C@H]1[C@H](CC(=O)O)[C@@H]1C(=O)O" 7.66

---

Biological target: Metabotropic glutamate receptor 4 (Rattus norvegicus)
Assay: Antagonist activity at rat mGlu4 transfected in HEK293 cells co-transfected with chimeric Gqi9 incubated for 30 mins by IP-one HTRF assay
Type: functional, cell-based
Active and inactive are the calls of the source. No cut-off for these calls is given here.
measurement-type: Activity

Solved cases below.
>>> result_value("N[C@@H](CCP(=O)(O)O)C(=O)O")
"inactive"
>>> result_value("N[C@@]1(C(=O)O)CO[C@H]2[C@H](C(=O)O)[C@H]21")
"inactive"
>>> result_value("Cl.N[C@H](C(=O)O)[C@H]1[C@H](CC(=O)O)[C@@H]1C(=O)O")
"inactive"
>>> result_value("N[C@@H](Cn1oc(=O)[nH]c1=O)C(=O)O [QUISQUALATE]")
"inactive"

Now consider the entry below.
Returns the measured Activity for the input compound. Input: "C[C@@]1(C(=O)O)C[C@H]1[C@H](N)C(=O)O" inactive

Ref: ChEMBL document CHEMBL5537160
